molecular target: CDK2/cyclinA (Homo sapiens, UniProt P24941); construct: purchased Invitrogen PV3267; test: Z'-LYTE kinase assay CDK2/cyclinA; assay type: biochemical; conditions: read-out: Kinase inhibition, IC50 CDK2A
Overview of recorded IC50 for various molecules
Report only the number, with the unit µM understood.

{"columns": ["STRUCTURE_STRING", "IC50, µM"],
 "data": [
  ["CCCn1cc(-c2ccnc(Nc3cccc(S(N)(=O)=O)c3)n2)c2cccnc21", 0.19],
  ["CCCn1cc(-c2ccnc(Nc3ccc(O)cc3)n2)c2cccnc21", 0.028],
  ["Cn1cc(-c2ccnc(Nc3ccc(O)cc3)n2)c2ccccc21", 0.305]
]}

Entry `CCCn1cc(-c2ccnc(Nc3ccc(S(N)(=O)=O)cc3)n2)c2ccncc21` — recorded IC50 = 0.01
